Each recorded value in this set is attributed to ChEMBL document CHEMBL1156216.

Target: Cytochrome P450 3A4 (Homo sapiens, UniProt P08684)
Sequence (P08684 whole entry): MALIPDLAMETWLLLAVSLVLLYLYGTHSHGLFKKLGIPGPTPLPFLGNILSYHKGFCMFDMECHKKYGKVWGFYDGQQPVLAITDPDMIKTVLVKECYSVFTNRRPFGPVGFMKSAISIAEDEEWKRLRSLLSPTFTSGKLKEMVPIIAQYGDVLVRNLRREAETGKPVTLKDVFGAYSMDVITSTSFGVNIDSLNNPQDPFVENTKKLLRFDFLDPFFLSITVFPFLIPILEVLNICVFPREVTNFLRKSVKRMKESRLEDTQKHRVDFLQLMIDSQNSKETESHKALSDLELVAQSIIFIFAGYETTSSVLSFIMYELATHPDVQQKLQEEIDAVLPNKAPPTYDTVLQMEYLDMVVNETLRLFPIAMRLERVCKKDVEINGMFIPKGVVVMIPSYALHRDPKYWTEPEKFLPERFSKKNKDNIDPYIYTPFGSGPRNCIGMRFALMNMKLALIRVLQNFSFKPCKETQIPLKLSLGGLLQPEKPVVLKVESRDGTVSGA
Each entry below lists one item and its recorded IC50 value.
Hi! Could you send only the number? It should be in µM, unit omitted.

Before answering, review these 7 worked examples.
Molecule | IC50 [µM]
CCC(COC)Nc1nccc(N(CC2CCNCC2)C(=O)c2ccc3c(c2)CCO3)n1 (stereo not given) | 0.367
CC(C)(CO)Nc1nccc(N(CC2CCNCC2)C(=O)c2ccc3c(c2)CCO3)n1 | 1.54
CC(C)Nc1nccc(N(CC2CCNCC2)C(=O)c2ccc3c(c2)CCO3)n1 | 2.9
COC[C@H](C)Nc1nccc(N(CC2CCNCC2)C(=O)c2ccc3c(c2)CCO3)n1 | 2.02
C[C@@H](CO)Nc1nccc(N(CCCCN)C(=O)c2ccc3c(c2)CCO3)n1 | 11.7
O=C(c1ccc2c(c1)CCO2)N(CC1CCNCC1)c1ccnc(NC2CC2)n1 | 0.34
C[C@H](Nc1nccc(N(CC2CCNCC2)C(=O)c2ccc3c(c2)CCO3)n1)c1ccccc1 | 0.094

Give recorded IC50 with Cytochrome P450 3A4 (Homo sapiens, UniProt P08684) for the following molecule: COC[C@H](C)Nc1nccc(N(CCCCN)C(=O)c2ccc3c(c2)CCO3)n1
2.65

====

Molecular target: Mitogen-activated protein kinase 14 (Homo sapiens)
Assay: Inhibition of human p38alpha assessed as gamma-[32P]ATP incorporation after 60 mins by scintillation counting
// boundary case: IC50 equal to 70 nM maps to Not fulfilled; strictly smaller maps to Fulfilled

In plain terms, does CCN(C(=O)c1cccc(C2CC2)c1)c1ccnc(N[C@@H](C)c2ccccc2)n1 come in under 70 nM for IC50?
Not fulfilled

Does the reported IC50 of C[C@H](Nc1nccc(N(CC2CCCNC2)C(=O)c2ccc3c(c2)CCO3)n1)c1ccccc1 (some centres undefined) stay below 70 nM?
Not fulfilled

Quick check: IC50 of CCN(C(=O)c1cc2ccccc2o1)c1ccnc(N[C@@H](C)c2ccccc2)n1 under 70 nM?
Not fulfilled

# TODO verify IC50 < 70 nM strictly for this compound: COC[C@H](C)Nc1nccc(N(CCCCN)C(=O)c2ccc3c(c2)CCO3)n1
Fulfilled

hey, is IC50 for CCN(C(=O)c1ccc2ccccc2c1)c1ccnc(N[C@@H](C)c2ccccc2)n1 lower than 70 nM or not?
Fulfilled

====

Target: Mitogen-activated protein kinase 14 (Homo sapiens)
Test: Inhibition of human p38alpha assessed as gamma-[32P]ATP incorporation after 60 mins by scintillation counting
Rule: IC50 below 200 nM gives fulfilled. Equal to or above 200 nM gives not fulfilled.

Worked examples, 3 compounds total:
Compound | Discrete Label
O=C(c1ccc2c(c1)CCO2)N(CC1CCNCC1)c1ccnc(NC2CC2)n1 | not fulfilled
C[C@H](Nc1nccc(N(CC2CCCCN2)C(=O)c2ccc3c(c2)CCO3)n1)c1ccccc1 (some centres not stated) | not fulfilled
CCN(C(=O)c1ccccc1Cl)c1ccnc(N[C@@H](C)c2ccccc2)n1 | not fulfilled

Hi there! Is IC50 for CCN(C(=O)c1cccc(C(F)(F)F)c1)c1ccnc(N[C@@H](C)c2ccccc2)n1 below 200 nM, do you know?
fulfilled

Threshold test, IC50 < 200 nM: C[C@H](Nc1nccc(N(CCCCN)C(=O)c2ccc3c(c2)CCO3)n1)c1ccccc1
fulfilled

Does CC(C)(CO)Nc1nccc(N(CC2CCNCC2)C(=O)c2ccc3c(c2)CCO3)n1 have IC50 strictly under 200 nM?
not fulfilled

IC50 under 200 nM? Item: NCCCCN(C(=O)c1ccc2c(c1)CCO2)c1ccnc(NC2CCC(O)CC2)n1 (configuration not stated)
fulfilled

Given the entry CC(C)Nc1nccc(N(CC2CCNCC2)C(=O)c2ccc3c(c2)CCO3)n1 , would its reported IC50 be below 200 nM?
fulfilled

Confirm or reject: IC50 of C[C@H](Nc1nccc(N(CCCN)C(=O)c2ccc3c(c2)CCO3)n1)c1ccccc1 lies strictly below 200 nM
not fulfilled

hey, is IC50 for CCN(C(=O)c1ccc2occc2c1)c1ccnc(N[C@@H](C)c2ccccc2)n1 lower than 200 nM or not?
fulfilled

Input CCN(C(=O)c1cccc(C)c1)c1ccnc(N[C@@H](C)c2ccccc2)n1 ; condition: IC50 strictly below 200 nM. Does it hold?
fulfilled

Identify whether the compound CCN(C(=O)c1ccccc1)c1ccnc(N[C@@H](C)c2ccccc2)n1 records IC50 below 200 nM.
fulfilled

Just wondering, is IC50 of CCN(C(=O)c1csc2ccccc12)c1ccnc(N[C@@H](C)c2ccccc2)n1 below 200 nM?
fulfilled

In plain terms, does C[C@H](Nc1nccc(N(CC2CCN(S(N)(=O)=O)CC2)C(=O)c2ccc3c(c2)CCO3)n1)c1ccccc1 come in under 200 nM for IC50?
not fulfilled

====

Measured IC50 values are reported for all entries that follow.
Biological target: Mitogen-activated protein kinase 14 (Homo sapiens, UniProt Q16539)
Sequence (Q16539 whole entry): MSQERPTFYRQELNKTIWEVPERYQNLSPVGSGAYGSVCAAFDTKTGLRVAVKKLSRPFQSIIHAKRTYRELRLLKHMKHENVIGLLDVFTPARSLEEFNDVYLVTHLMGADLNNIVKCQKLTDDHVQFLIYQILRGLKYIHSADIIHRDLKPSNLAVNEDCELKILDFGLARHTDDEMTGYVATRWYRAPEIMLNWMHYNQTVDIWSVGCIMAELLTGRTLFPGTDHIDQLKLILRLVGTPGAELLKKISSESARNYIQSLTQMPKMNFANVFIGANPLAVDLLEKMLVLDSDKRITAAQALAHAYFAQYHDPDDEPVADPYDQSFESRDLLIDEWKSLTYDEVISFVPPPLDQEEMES
Assay: Inhibition of human p38alpha assessed as gamma-[32P]ATP incorporation after 60 mins by scintillation counting

# annotated cases, reported IC50 shown
Compound Smiles | IC50
C[C@H](Nc1nccc(N(CCCS(C)(=O)=O)C(=O)c2ccc3c(c2)CCO3)n1)c1ccccc1 | 0.072 µM
CCN(C(=O)c1ccc2c(c1)CCCC2)c1ccnc(N[C@@H](C)c2ccccc2)n1 | 0.18 µM
C[C@H](Nc1nccc(N(CCCCO)C(=O)c2ccc3c(c2)CCO3)n1)c1ccccc1 | 0.096 µM

Request: IC50, test system Mitogen-activated protein kinase 14 (Homo sapiens, UniProt Q16539), entry CCN(C(=O)c1ccc(C)c(C)c1)c1ccnc(N[C@@H](C)c2ccccc2)n1
0.091 µM

====

Target: Mitogen-activated protein kinase 14 (Homo sapiens)
Assay: Inhibition of human p38alpha assessed as gamma-[32P]ATP incorporation after 60 mins by scintillation counting
Catalogue of IC50 readings, one per entry.
Give the value in nM but do not write nM after it.

Known results for compounds:
Compound | IC50 [nM]
COC[C@H](C)Nc1nccc(N(CC2CCNCC2)C(=O)c2ccc3c(c2)CCO3)n1 | 316
CCN(C(=O)c1ccc(Cl)cc1)c1ccnc(N[C@@H](C)c2ccccc2)n1 | 313
CCN(C(=O)c1cccc(C)c1C)c1ccnc(N[C@@H](C)c2ccccc2)n1 | 81
CCN(C(=O)c1ccc2c(c1)CCO2)c1ccnc(N[C@@H](C)c2ccccc2)n1 | 17
CCN(C(=O)c1cccc2c1OCC2)c1ccnc(N[C@@H](C)c2ccccc2)n1 | 90

Consider the compound shown here: NC1CCC(Nc2nccc(N(CC3CCNCC3)C(=O)c3ccc4c(c3)CCO4)n2)CC1 (stereo not drawn) What is its recorded IC50?
400

====

// reported IC50 for each item listed
Biological target: Mitogen-activated protein kinase 14 (Homo sapiens)
Assay: Inhibition of human p38alpha assessed as gamma-[32P]ATP incorporation after 60 mins by scintillation counting
Write the value in nM as a bare number.

If you can, please state the reported IC50 value of COCCN(C(=O)c1ccc2c(c1)CCO2)c1ccnc(N[C@@H](C)c2ccccc2)n1 .
345

So what's the measured IC50 for this one? CC(C)Nc1nccc(N(CCCCN)C(=O)c2ccc3c(c2)CCO3)n1
17

Bench note: what IC50 did CCN(C(=O)c1ccc2c(c1)CCC2)c1ccnc(N[C@@H](C)c2ccccc2)n1 show?
45

Fill in the blank: the reported IC50 of C[C@@H](CO)Nc1nccc(N(CCCCN)C(=O)c2ccc3c(c2)CCO3)n1 is ____.
310

====

Target: Mitogen-activated protein kinase 14 (Homo sapiens)
Assay: Inhibition of human p38alpha assessed as gamma-[32P]ATP incorporation after 60 mins by scintillation counting
# Lookup of reported log10 IC50 keyed by entry
Please keep in mind that the values are log10 of IC50 expressed in nM.

Worked cases, log10 IC50 given:
Molecule | log10 IC50
CCN(C(=O)c1cn(C)c2ccccc12)c1ccnc(N[C@@H](C)c2ccccc2)n1 | 2.19
C[C@H](Nc1nccc(N(CC2CCN(C(N)=O)CC2)C(=O)c2ccc3c(c2)CCO3)n1)c1ccccc1 | 2.85
C[C@H](Nc1nccc(N(CC2CC2)C(=O)c2ccc3c(c2)CCO3)n1)c1ccccc1 | 2.22
CCN(C(=O)c1cc(C)ccc1F)c1ccnc(N[C@@H](C)c2ccccc2)n1 | 1.41
O=C(c1ccc2c(c1)CCO2)N(CC1CCNCC1)c1ccnc(NC2CCC(O)CC2)n1 (stereo not drawn) | 2.56
CCc1cccc(C(=O)N(CC)c2ccnc(N[C@@H](C)c3ccccc3)n2)c1 | 1.81
CCC(COC)Nc1nccc(N(CC2CCNCC2)C(=O)c2ccc3c(c2)CCO3)n1 (stereo not drawn) | 2.72
CCN(C(=O)c1cccc(Cl)c1)c1ccnc(N[C@@H](C)c2ccccc2)n1 | 1.91

Form field: reported log10 IC50 of CCN(C(=O)c1ccc2c(c1)OCO2)c1ccnc(N[C@@H](C)c2ccccc2)n1
2.21

Looking for the measured log10 IC50 of C[C@H](Nc1nccc(N(CC2CCNCC2)C(=O)c2ccc3c(c2)CCO3)n1)c1ccccc1 , can you help?
1.73

What value of log10 IC50 has been recorded for this entry: CC(C)CN(C(=O)c1ccc2c(c1)CCO2)c1ccnc(N[C@@H](C)c2ccccc2)n1
2.66

Report log10 IC50 for CCN(C(=O)c1ccc(F)c(C)c1)c1ccnc(N[C@@H](C)c2ccccc2)n1 please.
1.59

Entry under review: C[C@H](Nc1nccc(N(CC2CCOCC2)C(=O)c2ccc3c(c2)CCO3)n1)c1ccccc1 . Reported log10 IC50?
2.20
